# Tested on: MCF7
# procedure-details: Cytotoxicity against human MCF7 cells by SRB assay
# Assay type: functional
# assay-conditions: read-out: ED50 (the source's name)
pEC50: −log10 of the molar value.
Label class 1 when pEC50 is at or above 5; anything below gets class 0.

Here's what some known entries look like.
C=C1CC[C@@H]2[C@](C)(CO[Si](c3ccccc3)(c3ccccc3)C(C)(C)C)[C@H](OC(C)=O)CC[C@@]2(C)[C@@H]1C/C=C1/C(=O)OC[C@H]1OC(C)=O | class 0
C=C1CC[C@@H]2[C@](C)(CO)[C@H](O)CC[C@@]2(C)[C@@H]1C/C=C1/C(=O)OC[C@H]1O [ANDROGRAPHOLIDE] | class 0
C=C1CC[C@@H]2[C@](C)(CO[Si](C(C)C)(C(C)C)C(C)C)[C@H](O)CC[C@@]2(C)[C@@H]1C/C=C1/C(=O)OC[C@H]1O | class 1

IN: Hello, I need to know if C=C1CC[C@@H]2[C@](C)(CO[Si](C)(C)C(C)(C)C)[C@H](O)CC[C@@]2(C)[C@@H]1C/C=C1/C(=O)OC[C@H]1O has measured pEC50 not below 5. Thanks!
OUT: class 0

IN: Test whether the compound C=C1CC[C@@H]2[C@]3(C)COC(C)(C)O[C@@H]3CC[C@@]2(C)[C@@H]1C/C=C1/C(=O)OC[C@H]1O records pEC50 of 5 or higher.
OUT: class 0

Data origin, for the record: ChEMBL document CHEMBL1932926
